Every entry's value here was drawn from PubChem BioAssay (NCI).

- Tested on: NCI-H522 lung
- Assay: NCI-60 one-dose screen, 48 h
- Protocol Conditions: 10 µM unless noted
Compounds without any hit were thinned out: in the full panel of roughly 83,000, 20% have a hit. Active and inactive are the calls of the source. Rule for the calls: active = growth percent below 10; inactive = the rest.
Your response should consist of one outcome taken from YES (active), NO (inactive)

Query block: Write down the call the test reported for this compound. Item: "CCOC(=O)c1ccc2c(c1)c1c(C)c3ccncc3c(C)c1n2C"
Result block: YES

Query block: Write down the call the test reported for this compound. Item: "CN(CCC#N)c1ccc(/C=C2\NC(=O)NC2=O)cc1"
Result block: NO

Query block: Write down the call the test reported for this compound. Item: "CN1CCCc2cc(/C=C3/SC(=S)N(CCc4ccc(O)cc4)C3=O)ccc21"
Result block: NO

Query block: Write down the call the test reported for this compound. Item: "CCC(CC)(N(CC(=O)O)CC(=O)O)C(CC)(CC)N(CC(=O)O)CC(=O)O"
Result block: NO

Query block: Write down the call the test reported for this compound. Item: CCC(C)Nc1ccc(NC(C)CC)cc1 (configuration not stated)
Result block: NO

Query block: Write down the call the test reported for this compound. Item: "O=C(Nc1ccccc1)c1sc(-c2ccccc2)cc1O"
Result block: NO

Query block: Write down the call the test reported for this compound. Item: "CCOC(=O)c1c2c(n3c1NCC3)-c1ccccc1C2=O"
Result block: NO

Query block: Write down the call the test reported for this compound. Item: COc1ccc(C(c2cc(OC)c(OC)c(OC)c2)N2CCCC2)cc1 (configuration not stated)
Result block: NO

Query block: Write down the call the test reported for this compound. Item: "Cc1ccc2[nH]c(-c3ccc(S(C)(=O)=O)cc3)c(/C=N/N=C(N)N)c2c1"
Result block: YES

Query block: Write down the call the test reported for this compound. Item: "C#Cc1cccc(Oc2ccc(NC(=O)CCl)cc2)c1"
Result block: YES

Query block: Write down the call the test reported for this compound. Item: "O=C(Cn1nnc2ccccc21)N/N=C/c1ccccc1F"
Result block: NO

Query block: Write down the call the test reported for this compound. Item: CCN1C(=O)N(CC)C2C1NN=c1s/c(=C3\C(=O)N(CCc4ccccc4)c4ccccc43)c(=O)n12 (configuration not stated)
Result block: YES

Query block: Write down the call the test reported for this compound. Item: "CC(=O)c1cc(-c2ccccc2N)n(-c2ccc3c(c2)OCO3)c1C"
Result block: NO

Query block: Write down the call the test reported for this compound. Item: "O=C(CCCCl)NNc1nccc(Nc2ccc(S(=O)(=O)Nc3ccncc3)cc2)n1"
Result block: NO

Query block: Write down the call the test reported for this compound. Item: "CCCCc1oc2ccccc2c1C(=O)c1ccc(O)cc1"
Result block: NO

Query block: Write down the call the test reported for this compound. Item: "CC(C)CSc1oc(-c2ccccc2)nc1S(=O)(=O)c1ccccc1"
Result block: NO

Query block: Write down the call the test reported for this compound. Item: "O=C(Nc1ccc(F)cc1)Nc1ccccc1CNc1nc(Nc2ccc(OCCN3CCCC3)cc2)ncc1Cl"
Result block: NO

Query block: Write down the call the test reported for this compound. Item: "O=c1[nH]c(-c2ccc(Cl)cc2)cn1-c1ccc(-n2cc(-c3ccc(Cl)cc3)[nH]c2=O)cc1"
Result block: NO

Query block: Write down the call the test reported for this compound. Item: "CC(C)C[C@@H](C(=O)N[C@H](C(=O)OC1CCCC1)c1ccccc1)[C@H](O)C(=O)NO"
Result block: NO

Query block: Write down the call the test reported for this compound. Item: "COc1ccc(NC(=O)c2sc3nc4c(cc3c2N)CCCC4)cc1"
Result block: YES

Query block: Write down the call the test reported for this compound. Item: "N#Cc1c(Nc2ccc(F)cc2)n[nH]c1-c1cccs1"
Result block: NO

Query block: Write down the call the test reported for this compound. Item: "COc1cc(-c2cc(-c3ccc(Nc4ncnc5cc(Cl)ccc45)cc3)nc(N3CCN(C)CC3)n2)cc(OC)c1OC"
Result block: NO

---

- System: ACHN renal
- Assay: NCI-60 one-dose screen, 48 h (100 = growth as untreated, 0 = no growth, -100 = all killed)
- Protocol Conditions: 10 µM unless noted
This is part of a sample that, as a whole, favours compounds with a hit. Of some 83,000 tested, about 20% had one in any assay.
Value Kind: growth (%)
A number alone suffices; assume %.

Query block: Recorded growth for "O[C@@H](c1cc(C(F)(F)F)nc2c(C(F)(F)F)cccc12)[C@H]1CCCCN1" , please?
Result block: 37.8

Query block: Recorded growth for "O=c1[nH]c(-c2ccc(Cl)cc2)cn1-c1ccc(-n2cc(-c3ccc(Cl)cc3)[nH]c2=O)cc1" , please?
Result block: 102

Query block: Recorded growth for "COc1ccccc1NC(=O)c1ccc(/C=C/C(=O)c2nccn2C)cc1" , please?
Result block: -100

Query block: Recorded growth for "Clc1ccc(-c2cn3ccsc3n2)c(Cl)c1Cl" , please?
Result block: 90.1

Query block: Recorded growth for "CC[C@H](CC[C@@H](C)[C@H]1CC[C@H]2[C@@H]3CC[C@@H]4CC(=O)/C(=C\c5ccncc5)C[C@]4(C)[C@H]3CC[C@]12C)C(C)C" , please?
Result block: 111

Query block: Recorded growth for "Cc1cc(C)c(-c2c(O)c(Br)c(-c3c(C)cc(C)c(Br)c3C)c(O)c2Br)c(C)c1Br" , please?
Result block: 14.1

Query block: Recorded growth for CC(/C=C1\SC(=S)N(CC(=O)NC(Cc2c[nH]c3ccccc23)C(=O)O)C1=O)=C\c1ccccc1 (centres undefined) , please?
Result block: 96.5

Query block: Recorded growth for "CCC(CC)(N(CC(=O)O)CC(=O)O)C(CC)(CC)N(CC(=O)O)CC(=O)O" , please?
Result block: 116

Query block: Recorded growth for "CCN(CC)c1ccc(/C=N/NC(=O)c2ccc(Nc3ccnc(C(F)(F)F)c3)cc2)c(O)c1" , please?
Result block: 7.21

Query block: Recorded growth for CC(C)=CC(=O)N[C@@H]1CC2CCC3C(CC[C@@]4(C)C3CC[C@@H]4C(C)N(C)C)[C@@]2(C)C[C@@H]1O (some centres undefined) , please?
Result block: 69.6

Query block: Recorded growth for "CCN(CC)CCN(CCN(CC)CC)c1ccccc1" , please?
Result block: 95.7

Query block: Recorded growth for "S=c1[nH]c2cc(Cl)ccc2o1" , please?
Result block: 98.7

Query block: Recorded growth for "COc1cc(/C=C2\C(=O)N(c3c(Cl)cccc3Cl)c3ccccc32)cc(OC)c1OCCCCCCn1c2ccccc2c(=O)c2ccccc21" , please?
Result block: 91.9

Query block: Recorded growth for "CCCCCCCCn1ccc2cc(NC(=O)Cn3cc(CN4CCOCC4)nn3)ccc21" , please?
Result block: 98.5

Query block: Recorded growth for "COc1cc(-c2nc3occn3c2-c2ccnc(NCCCNS(=O)(=O)c3ccccc3)n2)ccc1F" , please?
Result block: 37.3

Query block: Recorded growth for "CCc1cccc(Sc2cc(C(=O)N3Cc4ccc(OCCN(C)C)cc4C3)ccc2O)c1" , please?
Result block: 58.2

Query block: Recorded growth for "CCN(CC)S(=O)(=O)c1ccc(S(=O)(=O)N2CCC[C@@H](C(=O)N3CCN(C(=O)OC(C)(C)C)CC3)C2)cc1" , please?
Result block: 71.4

Query block: Recorded growth for "CN1CCN(Cc2ccc(NC(=O)c3cncc(C#Cc4cncc5ncccc45)c3)cc2C(F)(F)F)CC1" , please?
Result block: 8.35

Query block: Recorded growth for "COC(=O)c1c2c(c(C)[n+]([O-])c1C)C(=O)C=CC2=O" , please?
Result block: -37.6

Query block: Recorded growth for "O=C1/C=C/[C@@H](O)[C@@H]2C[C@@H](O)C[C@H]2/C=C/CCC[C@H](CCOCc2ccccc2)O1" , please?
Result block: 5.36

Query block: Recorded growth for "N#CC(C#N)N=Nc1ccc(Cl)cc1Cl" , please?
Result block: 58.4

Query block: Recorded growth for "COC(=O)Cc1nc(C#N)c(N(C)C)o1" , please?
Result block: 101

Query block: Recorded growth for O=C1CCC(C(=O)NN(c2ccccc2)c2ccccc2)N1 (centres undefined) , please?
Result block: 103

Query block: Recorded growth for "COc1ccc2cc(Cn3cc[n+](Cc4ccc5ccccc5c4)c3)ccc2c1" , please?
Result block: 98.8

Query block: Recorded growth for "CS(=O)(=O)Cc1cnc(C2OCCO2)s1" , please?
Result block: 96.8

Query block: Recorded growth for "O=C1/C(=C/c2ccccc2[N+](=O)[O-])COc2ccc(O)cc21" , please?
Result block: -13.5

Query block: Recorded growth for "COc1ccc2c(c1)c(-c1nc(-c3cn(C)c4ncccc34)cs1)cn2CCO" , please?
Result block: 72.1

Query block: Recorded growth for "N#Cc1c(NC(=O)c2cccs2)[n+]([O-])c2ccc(Cl)cc2[n+]1[O-]" , please?
Result block: 99.5

Query block: Recorded growth for "CCN(CC)CCOc1ccc(Nc2ncc3cc(-c4ccc(O)cc4)c(=O)n(C)c3n2)cc1" , please?
Result block: 26

Query block: Recorded growth for "COc1cc(/C=C/c2cc(/C=C/c3ccc(O)c(OC)c3)n(C(=O)Nc3ccc(F)cc3)n2)ccc1O" , please?
Result block: 20.2

Query block: Recorded growth for "CN1CCN(CCOc2ccc(-c3cnc4c(-c5ccc(C(F)(F)F)cc5)cnn4c3)cc2)CC1" , please?
Result block: 58.8

Query block: Recorded growth for "Cc1[nH]c(C(=O)Nc2ccc(C(N)=O)cc2NC(C)C)c(Cl)c1Cl" , please?
Result block: 96.5

Query block: Recorded growth for CCn1cc(C(=O)N/N=C/c2ccc(Br)cc2)c(=O)c2cc(F)c(N3CCNC(C)C3)c(F)c21 (centres undefined) , please?
Result block: 88.8

Query block: Recorded growth for "CCCCCCCCn1ccc2cc(NC(=O)Cn3cc(CN4CCN(CC)CC4)nn3)ccc21" , please?
Result block: 111

Query block: Recorded growth for "CCOC(=O)Nc1nc2ccc(SCC(C)C)cc2s1" , please?
Result block: 45.6

Query block: Recorded growth for "COc1ccc(Nc2ncccc2NC(=O)c2cn(Cc3cccc(Oc4ccccc4)c3)nn2)cc1OC" , please?
Result block: 93.9

Query block: Recorded growth for "CC(C)(CO)N(CCO)CCO" , please?
Result block: 97.1

Query block: Recorded growth for "O=C(Cn1nnc2ccccc21)N/N=C/c1ccccc1F" , please?
Result block: 106

Query block: Recorded growth for "C=C(CN1CC=CCC1)[C@@H]1CC[C@]2(CO)CC[C@]3(C)[C@H](CC[C@@H]4[C@@]5(C)CC[C@H](O)C(C)(C)[C@@H]5CC[C@]43C)[C@@H]12" , please?
Result block: 114
